Documented IC50 across a set of molecules
- System Under Test: A1R (Homo sapiens)
- Sequence (P30542 whole entry): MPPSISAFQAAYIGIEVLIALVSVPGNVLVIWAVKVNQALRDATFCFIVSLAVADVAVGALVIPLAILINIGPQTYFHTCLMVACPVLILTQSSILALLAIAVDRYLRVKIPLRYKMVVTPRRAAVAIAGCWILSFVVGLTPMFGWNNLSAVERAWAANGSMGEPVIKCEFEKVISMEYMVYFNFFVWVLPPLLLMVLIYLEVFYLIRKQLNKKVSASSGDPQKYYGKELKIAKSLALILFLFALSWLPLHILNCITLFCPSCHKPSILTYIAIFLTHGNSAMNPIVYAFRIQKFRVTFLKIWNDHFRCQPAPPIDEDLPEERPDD
- Assay Summary: Activity assay of adenosine receptor modulators, A1R cAMP (Table 1)

Some molecules with recorded IC50:
{"columns": ["Smiles", "Result"],
 "data": [
  ["CC(=O)NCC1CN(C(=O)c2nc(N[C@@H](C)c3cncc(F)c3)nc3nc(C)sc23)C1", "> 1 µM"],
  ["Cc1nc2nc(N[C@@H](C)c3cncc(F)c3)nc(C(=O)NC[C@H]3CCOC3)c2s1", "0.1 to 1 µM"],
  ["Cc1nc2nc(N[C@@H](C)c3cccnc3)nc(C(=O)N3CC(NC(=O)C4CCCCC4)C3)c2s1", "> 1 µM"]
]}

### Prompt If you can, please state the reported IC50 value of CC(=O)NC[C@@H]1CCN(C(=O)c2nc(N[C@@H](C)c3cncc(F)c3)nc3nc(C)sc23)C1 .
### Response > 1 µM

* * *

Target chain: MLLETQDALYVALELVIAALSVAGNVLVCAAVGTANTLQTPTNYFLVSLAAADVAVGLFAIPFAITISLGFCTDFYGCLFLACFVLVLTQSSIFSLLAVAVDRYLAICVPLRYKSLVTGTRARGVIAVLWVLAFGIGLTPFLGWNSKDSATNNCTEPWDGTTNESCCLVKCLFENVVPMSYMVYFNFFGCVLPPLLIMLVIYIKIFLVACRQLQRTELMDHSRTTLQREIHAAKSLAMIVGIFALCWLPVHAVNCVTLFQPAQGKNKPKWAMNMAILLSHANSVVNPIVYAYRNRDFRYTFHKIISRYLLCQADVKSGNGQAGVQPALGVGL
pIC50: −log10 of the molar value.
Recorded pIC50 for the following compounds

Take a look at these entries with their results.
{"columns": ["Smiles", "pIC50"],
 "data": [
  ["Cc1nc2nc(N[C@@H](C)c3ccccn3)nc(C(=O)N3CC(NC(=O)NC(C)(C)C)C3)c2s1", "6.00 to 7.00"],
  ["Cc1nc2nc(N[C@@H](C)c3cncc(F)c3)nc(C(=O)NCCC3CCN(C(=O)OC(C)(C)C)CC3)c2s1", "6.00 to 7.00"],
  ["Cc1nc2nc(N[C@@H](C)c3cncc(F)c3)nc(C(=O)NCc3cccnc3)c2s1", "> 7.00"]
]}

Now examine the next entry.
### Prompt I have this compound here, Cc1nc2nc(N[C@@H](C)c3cncc(F)c3)nc(C(=O)N3CC(NC(=O)C4(C)CC4)C3)c2s1 , and I need its recorded pIC50.
### Response > 7.00

* * *

Form: system (Adenosine A2A Receptor (Homo sapiens, UniProt P29274)), quantity (IC50), values below.

Worked examples, 5 compounds total:
{"columns": ["Smiles", "Value Type", "Result"],
 "data": [
  ["Cc1nc2nc(N[C@@H](C)c3cccnc3)nc(C(=O)N3CC[C@H](O)C3)c2s1", "IC50", "> 1 µM"],
  ["Cc1nc2nc(N[C@@H](C)c3ccccn3)nc(C(=O)NC(C)C)c2s1", "IC50", "0.1 to 1 µM"],
  ["Cc1nc2nc(N[C@@H](C)c3cncc(F)c3)nc(C(=O)N3CC[C@@H](O)C3)c2s1", "IC50", "0.1 to 1 µM"],
  ["Cc1nc2nc(N[C@@H](C)c3cncc(F)c3)nc(C(=O)NCCC3CCNCC3)c2s1", "IC50", "> 1 µM"],
  ["Cc1nc2nc(N[C@@H](C)c3ccccn3)nc(C(=O)N3CC(NC(=O)Nc4ccccc4)C3)c2s1", "IC50", "< 0.1 µM"]
]}

### Prompt Test system Adenosine A2A Receptor (Homo sapiens, UniProt P29274); read-out IC50; what value for COCCNC(=O)c1nc(N[C@@H](C)c2cncc(F)c2)nc2nc(C)sc12 ?
### Response 0.1 to 1 µM

### Prompt Requested read-out IC50, target or system Adenosine A2A Receptor (Homo sapiens, UniProt P29274), entry CC(=O)NCC1CN(C(=O)c2nc(N[C@@H](C)c3cncc(F)c3)nc3nc(C)sc23)C1
### Response > 1 µM

* * *

Consider compounds characterized by their IC50 with UniProt:P29274.

### Prompt Kindly state the measured IC50 obtained for Cc1nc2nc(N[C@@H](C)c3cncc(F)c3)nc(C(=O)N3CC(C(=O)N(C)C)C3)c2s1 [Example 26] with UniProt:P29274.
### Response > 1000 nM

### Prompt Provide value of IC50 for this record tested with UniProt:P29274: Cc1nc2nc(N[C@@H](C)c3cccnc3)nc(C(=O)N3CC(NC(=O)C(C)(C)C)C3)c2s1 [Example 64]
### Response < 100 nM

### Prompt Entry Cc1nc2nc(N[C@@H](C)c3cccnc3)nc(C(=O)N3CC(NC(=O)C4CCOCC4)C3)c2s1 [Example 82] , system UniProt:P29274: what IC50 was measured?
### Response < 100 nM

### Prompt Lab request: please report IC50 under test system UniProt:P29274 for Cc1nc2nc(N[C@@H](C)c3ccccn3)nc(C(=O)N3CC(NC(=O)NC(C)(C)C)C3)c2s1 [Example 63]
### Response < 100 nM

* * *

- System Under Test: A3R (Homo sapiens)
- Sequence (P0DMS8 whole entry): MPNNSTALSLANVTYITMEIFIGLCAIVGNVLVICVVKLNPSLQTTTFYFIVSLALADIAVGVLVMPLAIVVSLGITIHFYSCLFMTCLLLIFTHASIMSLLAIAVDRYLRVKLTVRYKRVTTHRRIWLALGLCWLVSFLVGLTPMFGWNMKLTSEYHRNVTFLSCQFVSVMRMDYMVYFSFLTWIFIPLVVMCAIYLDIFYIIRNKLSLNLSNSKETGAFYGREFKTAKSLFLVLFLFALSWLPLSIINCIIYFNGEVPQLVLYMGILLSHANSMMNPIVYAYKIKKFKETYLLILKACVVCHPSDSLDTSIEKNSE
- Assay Summary: Activity assay of adenosine receptor modulators, A3R cAMP (Table 1)
Here the recorded IC50 is given for each entry.

{"columns": ["Compound", "IC50"],
 "data": [
  ["COCC1CN(C(=O)c2nc(N[C@@H](C)c3cncc(F)c3)nc3nc(C)sc23)C1 [Example 51]", "> 1000 nM"],
  ["Cc1nc2nc(N[C@@H](C)c3cncc(F)c3)nc(C(=O)NCCc3ccc(O)cc3)c2s1 [Example 21]", "> 1000 nM"],
  ["CCNC(=O)C1CCN(C(=O)c2nc(N[C@@H](C)c3cncc(F)c3)nc3nc(C)sc23)C1 (some centres unmarked) [Example 38]", "> 1000 nM"],
  ["Cc1nc2nc(N[C@@H](C)c3cncc(F)c3)nc(C(=O)N3CC[C@@H](CO)C3)c2s1 [Example 49]", "> 1000 nM"],
  ["CO[C@H]1CCN(C(=O)c2nc(N[C@@H](C)c3cncc(F)c3)nc3nc(C)sc23)C1 [Example 41]", "> 1000 nM"]
]}

### Prompt IC50 for CC(=O)NC[C@H]1CCN(C(=O)c2nc(N[C@@H](C)c3cncc(F)c3)nc3nc(C)sc23)C1 [Example 53] ?
### Response > 1000 nM

### Prompt May I ask what IC50 has been recorded for Cc1nc2nc(N[C@@H](C)c3cncc(F)c3)nc(C(=O)N3CC(NC(=O)c4ccccc4)C3)c2s1 [Example 58] ?
### Response < 100 nM

### Prompt Form field: reported IC50 of Cc1nc2nc(N[C@@H](C)c3cncc(F)c3)nc(C(=O)NC[C@H](C)O)c2s1 [Example 5]
### Response 100 to 1000 nM

* * *

- System Under Test: UniProt:P30542
- Assay Summary: Activity assay of adenosine receptor modulators, A1R cAMP (Table 1)
pIC50: −log10 of the molar value.
Value Type: pIC50

{"columns": ["Compound", "System Under Test", "pIC50"],
 "data": [
  ["COc1cccc(C(=O)NC2CN(C(=O)c3nc(N[C@@H](C)c4cncc(F)c4)nc4nc(C)sc34)C2)c1 [Example 71]", "UniProt:P30542", "< 6.00"],
  ["Cc1nc2nc(N[C@@H](C)c3ccccn3)nc(C(=O)N3CCCC3)c2s1 [Example 9]", "UniProt:P30542", "< 6.00"]
]}

### Prompt Short answer please: pIC50, UniProt:P30542, entry Cc1cc(C)cc(C(=O)NC2CN(C(=O)c3nc(N[C@@H](C)c4cccnc4)nc4nc(C)sc34)C2)c1 [Example 83]
### Response < 6.00

### Prompt Recall the recorded pIC50 for Cc1nc2nc(N[C@@H](C)c3cncc(F)c3)nc(C(=O)N3CC(NC(=O)C4(C)CC4)C3)c2s1 [Example 54] with UniProt:P30542 and state it.
### Response < 6.00

* * *

- System Under Test: A3R (Homo sapiens)
- Assay Summary: Activity assay of adenosine receptor modulators, A3R cAMP (Table 1)
- Method: Compounds (e.g., adenosine receptor modulators) were tested for its biological activity. The assay results in Table 1 indicate (+ means >1 μM; ++ means 100 nM to 1 μM; +++ means <100 nM).
pIC50: −log10 of the molar value.
Quick reference for pIC50 among some molecules

### Prompt What does the record list as pIC50 for Cc1nc2nc(N[C@@H](C)c3cncc(F)c3)nc(C(=O)N3CC(NC(=O)c4ccoc4)C3)c2s1 [Example 72] ?
### Response 6.00 to 7.00

### Prompt What does the record list as pIC50 for CC(=O)N[C@H]1CCN(C(=O)c2nc(N[C@@H](C)c3cncc(F)c3)nc3nc(C)sc23)C1 [Example 29] ?
### Response 6.00 to 7.00

### Prompt Report pIC50 for Cc1nc2nc(N[C@@H](C)c3cccnc3)nc(C(=O)NC[C@@H](C)O)c2s1 [Example 12] please.
### Response < 6.00

### Prompt What measured pIC50 goes with Cc1nc2nc(N[C@@H](C)c3cccnc3)nc(C(=O)N3CC(NC(=O)C4CCCCC4)C3)c2s1 [Example 81] ?
### Response 6.00 to 7.00

Data provenance is patent US20200079793A1.
